Assay: qHTS for Inducers of the Endoplasmic Reticulum Stress Response (ERSR) in Human Glioma: qHTS; note: % of control where 0% means no effect; nearly all actives have a fitted effect of over 35% in size
Settings: U87-MG GRP78 promoter luciferase reporter, 16 h; stronger effect = higher value
The campaign covered roughly 420,000 compounds. About 75 (0.02%) were called active. What follows is part of a selection rich in actives, with near analogues and random picks from the rest.
measured_parameter: activation

Sample C(=Nc1ccc(/C=C/c2ccnc3ccccc23)cc1)Nc1ccc(/C=C/c2ccnc3ccccc23)cc1 ; activation observed: -10.1% (inactive)

Sample CCC1(C2CCN(C(=O)c3cccc(F)c3F)CC2)NC(=O)N(CCc2scnc2C)C1=O (centres undefined) ; activation observed: -1.9% (inactive)

Sample COc1ccc(CN(C)CCn2cc(C(=O)N3CCSCC3)nn2)cc1C ; activation observed: -2.77% (inactive)

Sample COC(=O)NC(c1ccccc1)[C@]1(C(C)=O)CCCC1=O (some centres undefined) ; activation observed: -3.63% (inactive)

Hello, the source for this data is PubChem BioAssay AID602332, in case you need it.
